Source: patent US12213970B2

# System Under Test: AOC2 (Homo sapiens, UniProt O75106)
# Construct: host or cells: HEK293 cells (transient transfection), cell homogenate
# Sequence (O75106 whole entry): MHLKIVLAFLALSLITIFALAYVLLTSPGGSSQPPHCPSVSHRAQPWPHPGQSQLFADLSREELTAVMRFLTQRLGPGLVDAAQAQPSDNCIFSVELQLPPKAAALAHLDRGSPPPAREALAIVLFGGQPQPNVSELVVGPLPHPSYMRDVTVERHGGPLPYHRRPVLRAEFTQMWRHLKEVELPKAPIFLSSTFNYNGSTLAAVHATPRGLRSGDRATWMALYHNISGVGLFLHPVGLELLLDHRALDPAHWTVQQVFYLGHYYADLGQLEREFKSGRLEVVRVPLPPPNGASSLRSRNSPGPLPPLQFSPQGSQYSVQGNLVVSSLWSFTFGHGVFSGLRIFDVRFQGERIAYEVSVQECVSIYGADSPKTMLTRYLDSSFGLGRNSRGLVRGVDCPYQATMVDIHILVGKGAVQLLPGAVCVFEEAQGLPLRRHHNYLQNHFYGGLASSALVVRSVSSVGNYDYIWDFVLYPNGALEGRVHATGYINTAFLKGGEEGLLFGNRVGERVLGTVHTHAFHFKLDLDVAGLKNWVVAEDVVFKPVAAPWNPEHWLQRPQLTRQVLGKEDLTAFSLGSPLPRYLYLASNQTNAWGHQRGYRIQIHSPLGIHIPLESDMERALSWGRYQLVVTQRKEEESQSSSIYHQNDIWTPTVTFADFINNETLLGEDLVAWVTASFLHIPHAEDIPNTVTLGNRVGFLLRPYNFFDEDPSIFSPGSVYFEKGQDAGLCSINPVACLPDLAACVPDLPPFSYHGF
# Protocol Details: AOC2 biochemical assay (Amplex Red)
# Condition Info: read-out: AOC2 IC50
Where a name gives a salt, the structure may show the parent alone.
I'd appreciate it if you marked entries Condition met when IC50 is lower than 70 nM and Condition not met when it is not.

Q: Lab note: confirm whether the reported IC50 for this molecule is below 70 nM, equality not counting. molecule: CNC(=O)[C@H]1CCN(S(=O)(=O)c2ccc(OC/C(=C\F)CN)nc2)C1 [Example 11]
Ans: Condition not met

Q: Hi there! Is IC50 for CC(=O)NC1CCN(S(=O)(=O)c2ccc(OC/C(=C\F)CN)nc2)C1 (centres unmarked) [Example 12] below 70 nM, do you know?
Ans: Condition not met

Q: Regarding CNC(=O)[C@@H]1CCCN1S(=O)(=O)c1ccc(OC/C(=C\F)CN)nc1 [Example 8] , kindly confirm whether its IC50 is beneath 70 nM.
Ans: Condition not met

Q: Could you please tell me whether IC50 recorded for CC1(C(=O)NC2CCOCC2)CCN(S(=O)(=O)c2ccc(OC/C(=C\F)CN)nc2)CC1 [Example 48, trifluoroacetate] is less than 70 nM?
Ans: Condition not met

Q: Confirm or reject: IC50 of CNC(=O)[C@@]12C[C@@H]1CN(S(=O)(=O)c1ccc(OC/C(=C\F)CN)nc1)C2 [Example 29] lies strictly below 70 nM
Ans: Condition met
